# Target: His6-AspH315–758 (human aspartate/asparagine-β-hydroxylase, AspH) (Homo sapiens)
# Construct: N-Terminally His6-tagged human AspH315–758 (His6-AspH315–758) was produced in E. coli BL21 (DE3) cells; made in house; host or cells: E. coli BL21 (DE3), pET-28a(+) vector
# Procedure text: SPE-MS AspH inhibition assay (LOPAC screen at fixed 20 μM and IC50 dose-response), hydroxylation of cyclic peptide hFX-CP101–119
# Type: biochemical
# Condition details: plate 5 (Pfitzer), test compounds at fixed 20 μM; mean conversion DMSO 32.88
Assay endpoint: Plate 5 (% conversion) (%)
Supply the numeric figure in %, leaving out any unit text.

Ask | Name the reported Plate 5 (% conversion) value associated with the compound C=Cc1cc(O)cc2nc(-c3ccc(O)c(F)c3)oc12
Reply | 25.98

Ask | Now try Cc1ccc(-c2cc(C(F)(F)F)nn2-c2ccc(S(N)(=O)=O)cc2)cc1 .
Reply | 40.77

Ask | Another compound to check: Cc1cc(CCC[C@H](CC(=O)NO)C(=O)N[C@H](C(=O)N[C@H](C)c2ccccc2)C(C)(C)C)ccc1-c1ccccc1
Reply | 7.43

Ask | Next compound up: NS(=O)(=O)c1ccc(-n2nc(C(F)(F)F)cc2-c2ccc(Cl)cc2)cc1
Reply | 44.31

Ask | Another: CS(=O)(=O)c1cccc(CNc2nc(Nc3ccc4c(c3)CCC(=O)N4)ncc2C(F)(F)F)c1
Reply | 33.66

----------
# Target: His6-AspH315–758 (human aspartate/asparagine-β-hydroxylase, AspH) (Homo sapiens)
# Construct: N-Terminally His6-tagged human AspH315–758 (His6-AspH315–758) was produced in E. coli BL21 (DE3) cells; made in house; host or cells: E. coli BL21 (DE3), pET-28a(+) vector
# Procedure text: SPE-MS AspH inhibition assay (LOPAC screen at fixed 20 μM and IC50 dose-response), hydroxylation of cyclic peptide hFX-CP101–119
# Format: biochemical
# Condition details: LOPAC compound at 20uM, plate 2; conversion of substrate peptide
Structures can show the parent of a compound that is named as a salt.
Reported Plate 2 (% conversion) is given for each of the following compounds.
Write the answer as a number in %, unit excluded.

CCC1(C2=NCCN2)Cc2ccccc2O1 (stereo not shown) [Efaroxan hydrochloride]    34.90
CCOC(=O)c1cnc2c(cnn2CC)c1NN=C(C)C [Etazolate hydrochloride]    58.51
CS(=O)(=O)O.Cn1cc(C(F)(F)F)nc1-c1ccc(OCC(O)CNCCOc2ccc(O)c(C(N)=O)c2)cc1 (stereo not shown) [CGP 20712A methanesulfonate]    36.56

Shift focus to the following entry.
Ask | // query Plate 2 (% conversion) value for entry CNC(=O)c1cc2c(cn1)[nH]c1ccccc12 [N-Methyl-beta-carboline-3-carboxamide]
Reply | 36.80

----------
Quick reference: % inhibition of the listed items.
# Target: His6-AspH315–758 (human aspartate/asparagine-β-hydroxylase, AspH) (Homo sapiens)
# Construct: N-Terminally His6-tagged human AspH315–758 (His6-AspH315–758) was produced in E. coli BL21 (DE3) cells; made in house; host or cells: E. coli BL21 (DE3), pET-28a(+) vector
# Procedure text: SPE-MS AspH inhibition assay (LOPAC screen at fixed 20 μM and IC50 dose-response), hydroxylation of cyclic peptide hFX-CP101–119
# Format: biochemical
# Condition details: LOPAC Plate 4, compound at 20 uM
# value in %; strip the unit string

// below: answered compounds
C[C@]12C=CC(=O)C=C1CC[C@@H]1C2=CC[C@]2(C)[C@@H](C(=O)CN3CCN(c4cc(N5CCCC5)nc(N5CCCC5)n4)CC3)CC[C@@H]12.O=C(O)/C=C\C(=O)O [U-74389G maleate]    33.28
N.N.N.N.N.N.N.N.N.N.N.N.N.N.[Cl-].[Cl-].[Cl-].[Cl-].[Cl-].[Cl-].[O-2].[O-2].[Ru+3].[Ru+3].[Ru+4]    -14.56
CC(C)(C)NCC(O)c1cc(O)cc(O)c1.CC(C)(C)NCC(O)c1cc(O)cc(O)c1.O=S(=O)(O)O (stereo not shown) [Terbutaline hemisulfate]    5.48
N[C@@H](Cn1ccc(=O)c(O)c1)C(=O)O    3.94
CN(C)c1ccc(/C=C2\C(=O)Nc3ccccc32)cc1    2.06
CCCN(CCC)C1Cc2cc(OC)c(OC)cc2C1.O=C(O)/C=C\C(=O)O [U-99194A maleate]    4.59

Ask | Find the recorded % inhibition belonging to N=C(N)SCCc1ccc(OCc2ccc([N+](=O)[O-])cc2)cc1 and report it.
Reply | -22.55

----------
# Target: His6-AspH315–758 (human aspartate/asparagine-β-hydroxylase, AspH) (Homo sapiens, UniProt Q12797)
# Construct: N-Terminally His6-tagged human AspH315–758 (His6-AspH315–758) was produced in E. coli BL21 (DE3) cells; made in house; host or cells: E. coli BL21 (DE3), pET-28a(+) vector
# Sequence (Q12797 315-758): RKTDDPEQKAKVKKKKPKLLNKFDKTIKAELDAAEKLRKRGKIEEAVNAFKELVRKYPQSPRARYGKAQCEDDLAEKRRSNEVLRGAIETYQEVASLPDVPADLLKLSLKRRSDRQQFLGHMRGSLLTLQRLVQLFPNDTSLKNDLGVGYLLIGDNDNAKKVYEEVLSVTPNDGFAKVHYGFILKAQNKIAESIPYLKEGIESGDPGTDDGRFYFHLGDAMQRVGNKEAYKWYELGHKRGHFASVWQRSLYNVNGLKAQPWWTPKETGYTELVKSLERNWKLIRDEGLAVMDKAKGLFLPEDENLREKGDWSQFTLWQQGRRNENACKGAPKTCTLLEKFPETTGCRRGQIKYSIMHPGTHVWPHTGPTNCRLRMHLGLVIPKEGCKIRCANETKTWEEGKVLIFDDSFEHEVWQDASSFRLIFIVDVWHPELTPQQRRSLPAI
# Procedure text: SPE-MS AspH inhibition assay (LOPAC screen at fixed 20 μM and IC50 dose-response), hydroxylation of cyclic peptide hFX-CP101–119
# Assay type: biochemical
# Condition details: LOPAC Plate 4, compound at 20 uM, substrate conversion
Structures can show the parent of a compound that is named as a salt.
Assay endpoint: % conversion (%)
Field: numeric (%). Do not append units.

Here's what some known entries look like.
COc1cc(OC)cc(-c2cc3cnc(N)nc3nc2NC(=O)NC(C)(C)C)c1    36.54
O=C(O)/C=C\C(=O)O.c1cnc(N2CCN(Cc3ccc4c(c3)OCO4)CC2)nc1 [Piribedil maleate]    38.12
NS(=O)(=O)Cc1noc2ccccc12 [Zonisamide sodium]    32.12
O=C(CCc1ccc(O)cc1)c1c(O)cc(O)cc1O    29.69

Ask | % conversion for CN1CCN(CC(=O)N2c3ccccc3C(=O)Nc3cccnc32)CC1 [Pirenzepine dihydrochloride] ?
Reply | 38.08

Ask | Try this compound too: COc1cc(Cc2cnc(N)nc2N)cc(OC)c1OC
Reply | 37.33

Ask | Follow-up entry: CCCCCCCCCCCCCCCCCCN(CCCCCCCCCCCCCCCCCC)CCCN(CCO)CCO
Reply | 28.90

Ask | Do the same for O=C(O)c1cccnc1C(=O)O please
Reply | 7.93

Ask | Follow-up entry: O=C(Nc1nc2ccccc2n1CCN1CCOCC1)c1cccc([N+](=O)[O-])c1
Reply | 37.00

----------
Below: a set of entries, each annotated with reported inhibition at 20 µM.
# Target: His6-AspH315–758 (human aspartate/asparagine-β-hydroxylase, AspH) (Homo sapiens, UniProt Q12797)
# Construct: N-Terminally His6-tagged human AspH315–758 (His6-AspH315–758) was produced in E. coli BL21 (DE3) cells; made in house; host or cells: E. coli BL21 (DE3), pET-28a(+) vector
# Procedure text: SPE-MS AspH inhibition assay (LOPAC screen at fixed 20 μM and IC50 dose-response), hydroxylation of cyclic peptide hFX-CP101–119
# Type: biochemical
# Condition details: LOPAC Plate 4, compound at 20 uM; read-out: % inhibition
Counter-ions that a name gives are not always drawn.
Quick reminder: number only, in %, skip the unit.

Reference set, count: 7
S=C(NC1CCCCC1)N1CCC(c2cnc[nH]2)CC1 [Thioperamide maleate]    -2.35
COc1ccc(C2CNC(=O)C2)cc1OC1CCCC1 (centres unmarked)    -3.65
CCN(CC)CCNC(=O)c1ccc(N)cc1 [Procainamide hydrochloride]    -7.36
CC[C@]1(O)C[C@H]2CN(CCc3c([nH]c4ccccc34)[C@@](C(=O)OC)(c3cc4c(cc3OC)N(C=O)[C@H]3[C@@](O)(C(=O)OC)[C@H](OC(C)=O)[C@]5(CC)C=CCN6CC[C@]43[C@@H]65)C2)C1 [Vincristine sulfate]    -10.5
N#CC(C#N)=Cc1ccc(O)c(O)c1 [Tyrphostin 23, reference compound]    98.7
O=c1n(CCCN2CCN(c3cccc(Cl)c3)CC2)nc2ccccn12 [Trazodone hydrochloride]    -9.38
NC(=O)c1ncn([C@@H]2O[C@H](CO)[C@@H](O)[C@H]2O)n1    -7.18

Please look at the following compound next.
Ask | What value of measured inhibition at 20 µM is listed for CN(C)CCCN1c2ccccc2Sc2ccccc21 [Promazine hydrochloride] ?
Reply | -9.23

----------
# Target: His6-AspH315–758 (human aspartate/asparagine-β-hydroxylase, AspH) (Homo sapiens, UniProt Q12797)
# Construct: N-Terminally His6-tagged human AspH315–758 (His6-AspH315–758) was produced in E. coli BL21 (DE3) cells; made in house; host or cells: E. coli BL21 (DE3), pET-28a(+) vector
# Procedure text: SPE-MS AspH inhibition assay (LOPAC screen at fixed 20 μM and IC50 dose-response), hydroxylation of cyclic peptide hFX-CP101–119
# Type: biochemical
Assay endpoint: Plate 3 (% conversion)
Provide the measurement as a number trailed by its unit.

C=C(C)[C@H]1CN[C@H](C(=O)O)[C@H]1CC(=O)O [Kainic acid]    38.81%

Ask | For COC(=O)Nc1nc2ccc(C(=O)c3cccs3)cc2[nH]1 [Nocodazole] , what is its reported Plate 3 (% conversion)?
Reply | 40.67%

Ask | Queued: CC(C)(C)OC(=O)NC1[C@H]2CNC[C@@H]12 (stereo partly drawn) [CP-101537]
Reply | 33.25%

Ask | What do we get for CC[C@@H](C(N)=O)N1CCCC1=O [Levetiracetam] ?
Reply | 34.85%

Ask | Here is the next compound: S=C(Nc1ccccc1)Nc1nccs1 [1-Phenyl-3-(2-thiazolyl)-2-thiourea]
Reply | 40.98%

Ask | Could you do the same for O=c1c(O)c(-c2cc(O)c(O)c(O)c2)oc2cc(O)cc(O)c12 [Myricetin, reference compound] , please?
Reply | 2.65%

Ask | Try this compound next: Cl.c1ccc([C@H]2CN3CCSC3=N2)cc1 [(-)-Tetramisole hydrochloride]
Reply | 32.10%

Ask | O=P(O)(O)C(O)(Cn1ccnc1)P(=O)(O)O [Zoledronic acid monohydrate] ?
Reply | 37.14%

Ask | Same question for Cc1cc2c(C(C)C)c(O)c(O)c(C=O)c2c(O)c1-c1c(C)cc2c(C(C)C)c(O)c(O)c(C=O)c2c1O [Gossypol] please.
Reply | 4.73%

Where do the numbers come from? From paper PMC7251097.
